tested on: Rattus norvegicus; experiment: Plasma concentration in haloperidol-induced cataleptic rat at 30 mg/kg, po; assay type: ADME, organism-based; set-up: dose 30 mg/kg, route oral; settings: in vivo
measurement label: concentration (µM)
Give bare numbers, in µM.

Which value of concentration has been reported for "Cc1ccc(COC(=O)N2CCC(CNc3ncccn3)CC2)cc1" in the records?
10.2

###

Dear all, this message contains pIC50 results, target or system Cytochrome P450 2D6 (Homo sapiens, UniProt P10635).
Answers are plain numbers, as −log10 of the molar value.

See these solved cases before continuing.
• O=C(OCc1ccccc1)N1CCC(CNc2cnccn2)CC1 = 5.77
• O=C(OCc1ccccc1)N1CCC(CNc2cccnc2)CC1 = 5.77

Now examine the next entry.
Which value of pIC50 has been reported for "O=C(OCc1ccccc1)N1CCC(CNc2ccncn2)CC1" in the records?
5.89

###

assay: Half life in rhesus monkey at 1 mg/kg, iv; type: ADME, organism-based, Macaca mulatta; design: dose 1 mg/kg, route intravenous; conditions: in vivo
measurement label: half-life (h)
Numbers only, in h.

Which value of half-life has been reported for "Cc1ccc(COC(=O)N2CCC(CNc3ncccn3)CC2)cc1" in the records?
2.2

###

target: Glutamate receptor ionotropic, NMDA 2B (Homo sapiens, UniProt Q05586+Q13224); assay: Antagonist activity at human NR2B expressed in Ltk- cells by calcium flux assay
Sequence (Q13224 whole entry, one chain of several): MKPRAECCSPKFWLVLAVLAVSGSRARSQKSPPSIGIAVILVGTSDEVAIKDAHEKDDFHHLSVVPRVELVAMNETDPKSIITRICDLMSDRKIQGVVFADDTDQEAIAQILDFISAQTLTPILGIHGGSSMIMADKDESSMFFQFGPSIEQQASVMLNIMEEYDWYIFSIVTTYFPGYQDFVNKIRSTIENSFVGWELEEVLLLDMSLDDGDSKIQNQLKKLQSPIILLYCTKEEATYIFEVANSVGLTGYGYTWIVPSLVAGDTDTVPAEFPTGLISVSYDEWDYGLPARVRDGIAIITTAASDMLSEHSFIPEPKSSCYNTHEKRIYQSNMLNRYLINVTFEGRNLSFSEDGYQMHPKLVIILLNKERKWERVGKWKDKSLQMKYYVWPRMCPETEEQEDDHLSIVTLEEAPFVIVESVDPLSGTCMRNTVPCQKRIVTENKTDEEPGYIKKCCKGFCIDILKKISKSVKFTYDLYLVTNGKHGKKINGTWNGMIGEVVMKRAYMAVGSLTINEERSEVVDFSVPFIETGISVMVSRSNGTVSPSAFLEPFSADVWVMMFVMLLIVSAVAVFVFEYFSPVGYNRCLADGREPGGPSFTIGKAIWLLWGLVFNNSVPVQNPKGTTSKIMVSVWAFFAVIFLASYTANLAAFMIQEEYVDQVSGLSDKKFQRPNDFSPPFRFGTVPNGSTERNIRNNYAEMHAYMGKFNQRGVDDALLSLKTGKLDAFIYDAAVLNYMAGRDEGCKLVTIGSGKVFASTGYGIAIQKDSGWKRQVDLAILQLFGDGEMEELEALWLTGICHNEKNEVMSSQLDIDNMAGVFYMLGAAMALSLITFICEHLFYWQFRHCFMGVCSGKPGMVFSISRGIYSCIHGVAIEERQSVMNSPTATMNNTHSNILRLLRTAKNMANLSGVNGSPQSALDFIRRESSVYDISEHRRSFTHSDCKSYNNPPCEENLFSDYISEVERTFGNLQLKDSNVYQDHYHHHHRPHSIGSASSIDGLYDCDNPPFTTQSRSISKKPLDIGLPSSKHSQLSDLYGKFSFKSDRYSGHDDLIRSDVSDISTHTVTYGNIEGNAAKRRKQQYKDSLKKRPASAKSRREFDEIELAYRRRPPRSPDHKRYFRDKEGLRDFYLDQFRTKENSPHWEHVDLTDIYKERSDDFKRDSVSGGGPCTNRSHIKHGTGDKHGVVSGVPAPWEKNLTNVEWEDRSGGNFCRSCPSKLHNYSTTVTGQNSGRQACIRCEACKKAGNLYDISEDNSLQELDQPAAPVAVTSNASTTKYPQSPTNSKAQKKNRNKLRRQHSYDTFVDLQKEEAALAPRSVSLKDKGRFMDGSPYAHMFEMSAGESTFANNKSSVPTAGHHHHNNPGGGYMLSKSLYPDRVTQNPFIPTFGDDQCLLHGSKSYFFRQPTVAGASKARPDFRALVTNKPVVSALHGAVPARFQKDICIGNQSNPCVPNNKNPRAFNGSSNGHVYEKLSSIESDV
measurement label: pEC50
Answers are plain numbers, as −log10 of the molar value.

- Cc1ccc(COC(=O)N2CCC(CNc3ncccn3)CC2)cc1: 8.25

Now examine the next entry.
Which value of pEC50 has been reported for "O=C(OCc1ccccc1)N1CCC(CNc2ccncc2)CC1" in the records?
8.80

###

assay: Drug level in hyperalgesic rat brain at 1 mg/kg, po after 15 mins; type: ADME, organism-based; set-up: dose 1 mg/kg, route oral; details: read-out: Drug uptake
measurement label: concentration at […] (nM)
One number for each entry, in nM.

Which value of concentration at […] has been reported for "Cc1ccc(COC(=O)N2CCC(CNc3ncccn3)CC2)cc1" in the records?
510

###

target: Glutamate receptor ionotropic, NMDA 2B (Homo sapiens, UniProt Q05586+Q13224); assay: Antagonist activity at human NR2B expressed in Ltk- cells by calcium flux assay
measurement label: pIC50
One number for each entry, as −log10 of the molar value.

Which value of pIC50 has been reported for "c1ccc(COc2ccc(CCNc3ccncc3)cc2)cc1" in the records?
6.99

###

test system: Canis familiaris; assay: AUC in Beagle dog at 0.5 mg/kg, iv; assay type: ADME, organism-based, Canis lupus familiaris, Plasma; design: dose 0.5 mg/kg, route intravenous; details: in vivo
measurement label: AUC (µM·h)
Give bare numbers, in µM·h.

Which value of AUC has been reported for "O=C(OCc1ccccc1)N1CCC(CNc2ccncc2)CC1" in the records?
1.7

###

test: Plasma protein binding in rat; assay type: ADME, cell-free; conditions: read-out: PPB (converted)
measurement label: fraction unbound
Numbers only.

Which value of fraction unbound has been reported for "Cc1ccc(COC(=O)N2CCC(CNc3ncccn3)CC2)cc1" in the records?
0.153

###

system: Rattus norvegicus; experiment: AUC in Sprague-Dawley rat at 2 mg/kg, iv; assay type: ADME, organism-based, Plasma; parameters: dose 2 mg/kg, route intravenous; details: in vivo
measurement label: AUC (µM·h)
Answers are plain numbers, in µM·h.

• O=C(OCc1ccccc1)N1CCC(CNc2ccncc2)CC1 = 1.9

Now examine the next entry.
Which value of AUC has been reported for "Cc1ccc(COC(=O)N2CCC(CNc3ncccn3)CC2)cc1" in the records?
7.1

###

target: Voltage-gated inwardly rectifying potassium channel KCNH2 (Homo sapiens, UniProt Q12809)
Sequence (Q12809 whole entry): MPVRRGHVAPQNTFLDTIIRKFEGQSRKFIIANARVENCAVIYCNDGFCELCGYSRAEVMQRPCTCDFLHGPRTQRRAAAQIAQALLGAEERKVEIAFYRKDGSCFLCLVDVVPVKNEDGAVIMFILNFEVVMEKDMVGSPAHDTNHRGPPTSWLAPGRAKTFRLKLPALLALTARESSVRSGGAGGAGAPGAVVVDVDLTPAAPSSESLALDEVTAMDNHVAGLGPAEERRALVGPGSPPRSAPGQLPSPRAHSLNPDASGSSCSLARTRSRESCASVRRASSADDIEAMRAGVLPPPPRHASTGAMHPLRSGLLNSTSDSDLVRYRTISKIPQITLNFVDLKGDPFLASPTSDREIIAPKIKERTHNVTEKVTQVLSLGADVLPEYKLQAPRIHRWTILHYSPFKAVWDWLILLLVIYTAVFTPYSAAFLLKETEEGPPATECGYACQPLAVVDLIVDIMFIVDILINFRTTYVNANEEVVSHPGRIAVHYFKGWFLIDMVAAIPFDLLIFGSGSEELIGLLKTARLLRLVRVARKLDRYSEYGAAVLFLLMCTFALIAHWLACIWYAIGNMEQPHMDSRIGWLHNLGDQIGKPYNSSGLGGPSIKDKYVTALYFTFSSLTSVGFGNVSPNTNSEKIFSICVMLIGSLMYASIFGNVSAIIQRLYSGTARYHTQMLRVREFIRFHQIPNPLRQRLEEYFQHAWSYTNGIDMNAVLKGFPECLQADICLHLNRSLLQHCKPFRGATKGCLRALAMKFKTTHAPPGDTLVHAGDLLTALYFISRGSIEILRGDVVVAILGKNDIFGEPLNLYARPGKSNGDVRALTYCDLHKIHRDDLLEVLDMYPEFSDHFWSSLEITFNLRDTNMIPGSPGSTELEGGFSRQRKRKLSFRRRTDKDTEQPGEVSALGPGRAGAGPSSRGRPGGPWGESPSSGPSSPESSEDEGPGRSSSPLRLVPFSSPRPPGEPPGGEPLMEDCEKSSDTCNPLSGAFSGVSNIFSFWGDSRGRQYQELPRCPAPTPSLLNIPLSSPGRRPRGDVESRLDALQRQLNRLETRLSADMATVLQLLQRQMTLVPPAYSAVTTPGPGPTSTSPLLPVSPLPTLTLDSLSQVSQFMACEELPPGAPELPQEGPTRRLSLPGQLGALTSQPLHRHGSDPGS
measurement label: IC50 (nM)
One number for each entry, in nM.

Which value of IC50 has been reported for "c1ccc(COc2ccc(CCNc3ccncc3)cc2)cc1" in the records?
130

###

target: Glutamate receptor ionotropic, NMDA 2A (Homo sapiens, UniProt Q05586+Q12879); experiment: Activity at human NR2A expressed in Ltk- cells by calcium flux assay
Sequence (Q12879 whole entry, one chain of several): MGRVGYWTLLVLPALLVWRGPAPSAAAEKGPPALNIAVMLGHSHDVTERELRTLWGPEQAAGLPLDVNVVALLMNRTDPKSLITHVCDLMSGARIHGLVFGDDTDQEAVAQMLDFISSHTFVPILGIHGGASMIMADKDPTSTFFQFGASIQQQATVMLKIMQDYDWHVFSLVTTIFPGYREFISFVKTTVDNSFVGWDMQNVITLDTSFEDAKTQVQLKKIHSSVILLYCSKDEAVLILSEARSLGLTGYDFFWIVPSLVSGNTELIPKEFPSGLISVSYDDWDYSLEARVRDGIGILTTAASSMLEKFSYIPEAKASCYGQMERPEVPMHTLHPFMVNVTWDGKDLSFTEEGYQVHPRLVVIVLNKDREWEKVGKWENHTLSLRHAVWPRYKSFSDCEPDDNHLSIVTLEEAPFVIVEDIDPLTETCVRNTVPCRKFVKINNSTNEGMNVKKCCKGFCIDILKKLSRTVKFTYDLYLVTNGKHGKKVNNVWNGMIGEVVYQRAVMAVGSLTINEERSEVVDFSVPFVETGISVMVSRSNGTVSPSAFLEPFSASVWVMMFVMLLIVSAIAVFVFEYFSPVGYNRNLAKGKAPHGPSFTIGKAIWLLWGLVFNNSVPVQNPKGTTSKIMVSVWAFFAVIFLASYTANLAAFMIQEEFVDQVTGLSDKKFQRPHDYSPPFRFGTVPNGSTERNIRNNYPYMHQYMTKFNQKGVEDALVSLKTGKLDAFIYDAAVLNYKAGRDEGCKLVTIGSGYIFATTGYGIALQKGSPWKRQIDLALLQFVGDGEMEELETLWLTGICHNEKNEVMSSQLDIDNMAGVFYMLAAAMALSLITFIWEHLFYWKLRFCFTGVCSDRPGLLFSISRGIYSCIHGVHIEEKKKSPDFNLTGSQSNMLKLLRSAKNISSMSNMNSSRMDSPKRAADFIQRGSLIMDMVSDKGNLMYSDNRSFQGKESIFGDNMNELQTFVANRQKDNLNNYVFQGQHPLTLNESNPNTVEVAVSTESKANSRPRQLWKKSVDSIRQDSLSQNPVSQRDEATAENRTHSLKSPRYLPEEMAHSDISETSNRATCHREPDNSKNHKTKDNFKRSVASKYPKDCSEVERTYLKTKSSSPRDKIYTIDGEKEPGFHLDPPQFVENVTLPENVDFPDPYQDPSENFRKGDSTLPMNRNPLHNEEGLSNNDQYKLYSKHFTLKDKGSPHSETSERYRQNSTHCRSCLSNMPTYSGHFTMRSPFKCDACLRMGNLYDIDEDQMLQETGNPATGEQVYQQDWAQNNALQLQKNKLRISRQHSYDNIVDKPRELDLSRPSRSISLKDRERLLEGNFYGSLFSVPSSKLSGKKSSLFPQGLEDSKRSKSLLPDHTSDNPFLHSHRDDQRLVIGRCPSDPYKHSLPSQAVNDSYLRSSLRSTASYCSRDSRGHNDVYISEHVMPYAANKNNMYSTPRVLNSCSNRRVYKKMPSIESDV
measurement label: EC50

Which value of EC50 has been reported for "O=C(OCc1ccccc1)N1CCC(CNc2ccncc2)CC1" in the records?
> 10 µM

###

Dear all, this message contains pIC50 results, target or system Cytochrome P450 2C9 (Homo sapiens).
Answers are plain numbers, as −log10 of the molar value.

See these solved cases before continuing.
* O=C(OCc1ccccc1)N1CCC(CNc2cnccn2)CC1 | 4.92
* O=C(OCc1ccccc1)N1CCC(CNc2cccnc2)CC1 | 4.92

Which value of pIC50 has been reported for "O=C(OCc1ccccc1)N1CCC(CNc2ccncn2)CC1" in the records?
6.30

###

experiment: Oral bioavailability in Beagle dog at 1 mg/kg, po; type: ADME, organism-based, Canis lupus familiaris; settings: in vivo
measurement label: bioavailability (%)
Numbers only, in %.

• Cc1ccc(COC(=O)N2CCC(CNc3ncccn3)CC2)cc1 = 24

Now examine the next entry.
Which value of bioavailability has been reported for "O=C(OCc1ccccc1)N1CCC(CNc2ccncc2)CC1" in the records?
11

###

Can you tell me concentration at 1 h for the items I'm about to list?
experiment: Drug level in rat brain at 30 mg/kg, po after 1 hr; format: ADME, organism-based; parameters: dose 30 mg/kg, route oral; details: read-out: Drug uptake
Numbers only, in nM.

• O=C(OCc1ccccc1)N1CCC(CNc2ccncc2)CC1 = 11000
• O=C(OCc1ccccc1)N1CCC(CNc2ccccn2)CC1 = 170
• O=C(OCc1ccccc1)N1CCC(CNc2ncccn2)CC1 = 3100

Which value of concentration at 1 h has been reported for "O=C(OCc1ccccc1)N1CCC(CNc2ccncn2)CC1" in the records?
700

###

test: Oral bioavailability in rhesus monkey at 1 mg/kg, po; assay type: ADME, organism-based, Macaca mulatta; conditions: in vivo
measurement label: bioavailability (%)
One number for each entry, in %.

Which value of bioavailability has been reported for "Cc1ccc(COC(=O)N2CCC(CNc3ncccn3)CC2)cc1" in the records?
26

###

assay: Drug level in hyperalgesic rat plasma at 10 mg/kg, po after 1 hr; assay type: ADME, organism-based; design: dose 10 mg/kg, route oral
measurement label: concentration at 1 h (nM)
Numbers only, in nM.

Which value of concentration at 1 h has been reported for "Cc1ccc(COC(=O)N2CCC(CNc3ncccn3)CC2)cc1" in the records?
1800

###

assay: Drug level in hyperalgesic rat plasma at 1 mg/kg, po after 15 mins; type: ADME, organism-based; design: dose 1 mg/kg, route oral
measurement label: concentration at […]

Which value of concentration at […] has been reported for "Cc1ccc(COC(=O)N2CCC(CNc3ncccn3)CC2)cc1" in the records?
960 nM

###

assay: Cmax in rhesus monkey at 1 mg/kg, po; type: ADME, organism-based, Macaca mulatta; parameters: dose 1 mg/kg, route oral; details: in vivo
measurement label: Cmax
Show the value, then the unit it is measured in.

Which value of Cmax has been reported for "Cc1ccc(COC(=O)N2CCC(CNc3ncccn3)CC2)cc1" in the records?
600 nM

###

assay: Drug level in hyperalgesic rat brain at 10 mg/kg, po after 1 hr; type: ADME, organism-based; set-up: dose 10 mg/kg, route oral; conditions: read-out: Drug uptake
measurement label: concentration at 1 h (nM)
One number for each entry, in nM.

Which value of concentration at 1 h has been reported for "Cc1ccc(COC(=O)N2CCC(CNc3ncccn3)CC2)cc1" in the records?
850

###

Can you tell me pKi for the items I'm about to list?
biological target: Glutamate receptor ionotropic, NMDA 2B (Homo sapiens, UniProt Q05586+Q13224); assay: Displacement of [3H](E)-N1-(2-methoxybenzyl)cinnamamidine from human NR2B expressed in Ltk- cells
Numbers only, as −log10 of the molar value.

• CC(C)c1ccc(COC(=O)N2CCC(CNc3ncccn3)CC2)cc1 = 8.11
• Cc1ccccc1COC(=O)N1CCC(CNc2ncccn2)CC1 = 6.64
• O=C(OC1Cc2ccccc2C1)N1CCC(CNc2ncccn2)CC1 = 7.64
• Cc1ccc(COC(=O)N2CCC(CNc3ncccn3)CC2)cc1 = 8.47
• O=C(OCc1ccccc1)N1CCC(CNc2ncccn2)CC1 = 7.64

Each compound below has a recorded value; state its pKi.
1. COc1ccc(COC(=O)N2CCC(CNc3ncccn3)CC2)cc1
2. O=C(OCc1ccccc1)N1CCC(CNc2ccncc2)CC1
3. O=C(OCc1cccc(F)c1)N1CCC(CNc2ncccn2)CC1

[6.34, 7.97, 6.82]

###

assay: Oral bioavailability in Sprague-Dawley rat at 10 mg/kg, po; format: ADME, organism-based; conditions: in vivo
measurement label: bioavailability (%)
Answers are plain numbers, in %.

Which value of bioavailability has been reported for "Cc1ccc(COC(=O)N2CCC(CNc3ncccn3)CC2)cc1" in the records?
45
